- Assayed System: UniProt P21453
- Procedure Text: β-Arrestin2 recruitment assay (PathHunter), S1P1 CHO-K1 cells
- Format: cell-based
- Condition Label: β-arrestin2 recruitment, S1P1 CHO-K1 cells
Field: hS1P1 B-arrestin2 pEC50. Provide a value for each of the molecules that follow.

State its hS1P1 B-arrestin2 pEC50 for this molecule: Cc1ccccc1-c1noc(-c2ccc3scnc3c2)n1 [Compound 362]
<5

State its hS1P1 B-arrestin2 pEC50 for this molecule: CCC1(CC)CC(=O)c2cc(-c3nc(-c4ccc5c(c4)nnn5C(C)C)ns3)ccc2O1 [Compound 29]
<5

State its hS1P1 B-arrestin2 pEC50 for this molecule: O=C1CNc2ccc(-c3nc(-c4cn[nH]c4)no3)cc2N1 [Compound 645]
<5

State its hS1P1 B-arrestin2 pEC50 for this molecule: CC(C)n1nnc2cc(-c3nc(-c4cncnc4)no3)ccc21 [Compound 249]
<5

State its hS1P1 B-arrestin2 pEC50 for this molecule: O=C1CC2(CCC(F)(F)CC2)Oc2ccc(-c3nc(-c4cccnc4)no3)cc21 [Compound 36]
<5

State its hS1P1 B-arrestin2 pEC50 for this molecule: CC(C)n1nnc2cc(-c3cc(-c4ccccc4F)c[nH]3)ccc21 [Compound 542]
>5

State its hS1P1 B-arrestin2 pEC50 for this molecule: CC(C)n1ccc2cc(-c3noc(-c4cccc(F)c4)n3)ccc21 [Compound 394]
>5

State its hS1P1 B-arrestin2 pEC50 for this molecule: CCC1(CC)CC(=O)c2cc(-c3nc(-c4ccsc4)no3)ccc2O1 [Compound 468]
>5

State its hS1P1 B-arrestin2 pEC50 for this molecule: CC(C)n1ccc2nc(-c3nc(-c4ccccc4Br)cs3)ccc21 [Compound 412]
<5

State its hS1P1 B-arrestin2 pEC50 for this molecule: CC(C)n1nnc2cc(-c3noc(C4CCC(F)(F)CC4)n3)ccc21 [Compound 125]
<5

State its hS1P1 B-arrestin2 pEC50 for this molecule: Cc1ccncc1-c1noc(-c2ccc3c(c2)nnn3C(C)C)n1 [Compound 101]
>5

State its hS1P1 B-arrestin2 pEC50 for this molecule: COc1ccccc1-c1noc(-c2ccc3c(c2)NC(=O)CN3)n1 [Compound 614]
<5

State its hS1P1 B-arrestin2 pEC50 for this molecule: C=C(F)CNc1ccc(-c2nc(-c3ccc4c(c3)CCC(=O)N4)no2)cc1C#N [Compound 346]
>5

State its hS1P1 B-arrestin2 pEC50 for this molecule: C=CCNc1ccc(-c2nc(-c3ccc(NS(C)(=O)=O)cc3)no2)cc1C#N [Compound 149]
>5

State its hS1P1 B-arrestin2 pEC50 for this molecule: COc1ccccc1-c1noc(-c2ccc3[nH]ncc3c2)n1 [Compound 371]
<5

State its hS1P1 B-arrestin2 pEC50 for this molecule: CCC1(CC)CC(=O)c2cc(-c3nc(-c4ccc(NC(C)=O)cc4)no3)ccc2O1 [Compound 209]
>5

State its hS1P1 B-arrestin2 pEC50 for this molecule: Cc1ccc(-c2nc(-c3ccc4c(c3)nnn4C3CCCC3)no2)cc1 [Compound 235]
<5

State its hS1P1 B-arrestin2 pEC50 for this molecule: CC1CC(=O)c2ccc(-c3nc(-c4cccnc4)no3)cc2O1 (stereo not drawn) [Compound 535]
>5

State its hS1P1 B-arrestin2 pEC50 for this molecule: c1cc(-c2noc(-c3ccc4c(c3)nnn4C3CC3)n2)ccn1 [Compound 295]
<5

State its hS1P1 B-arrestin2 pEC50 for this molecule: CCC1(CC)CC(=O)c2cc(-c3nc(-c4cccnn4)no3)ccc2O1 [Compound 621]
<5

State its hS1P1 B-arrestin2 pEC50 for this molecule: CC(C)n1ccc2cc(-c3noc(-c4ccccc4C(F)(F)F)n3)ccc21 [Compound 390]
>5

State its hS1P1 B-arrestin2 pEC50 for this molecule: CC(C)Oc1ccc(-c2ccc(-c3ccc4c(c3)nnn4C(C)C)cc2)cc1C#N [Compound 506]
>5

State its hS1P1 B-arrestin2 pEC50 for this molecule: COc1ccncc1-c1nc(-c2ccc3c(c2)nnn3C(C)C)no1 [Compound 605]
>5

State its hS1P1 B-arrestin2 pEC50 for this molecule: CC(C)n1ccc2cc(-c3noc(-c4ccncc4F)n3)ccc21 [Compound 399]
>5

State its hS1P1 B-arrestin2 pEC50 for this molecule: CC(C)n1nnc2cc(-c3noc(-c4ccccc4C#N)n3)ccc21 [Compound 279]
<5

State its hS1P1 B-arrestin2 pEC50 for this molecule: CCC1CC(=O)c2ccc(-c3nc(-c4cccnc4)no3)cc2O1 (stereo not drawn) [Compound 588]
<5

State its hS1P1 B-arrestin2 pEC50 for this molecule: Cc1cnccc1-c1nc(-c2ccc3c(ccn3C(C)C)c2)no1 [Compound 142]
>5

State its hS1P1 B-arrestin2 pEC50 for this molecule: CC1(C)Oc2ccc(-c3nc(-c4cccnc4)no3)cc2C1=O [Compound 481]
>5

State its hS1P1 B-arrestin2 pEC50 for this molecule: COc1ccc(-c2nc(-c3ccc4c(ccn4C(C)C)c3)no2)cc1 [Compound 393]
<5

State its hS1P1 B-arrestin2 pEC50 for this molecule: CC(C)(CO)n1nnc2cc(-c3noc(-c4ccc5nc[nH]c5c4)n3)ccc21 [Compound 642]
<5

State its hS1P1 B-arrestin2 pEC50 for this molecule: CC(C)Nc1ccc(-c2nnc(-c3ccc4[nH]ncc4c3)o2)cc1C#N [Compound 351]
>5

State its hS1P1 B-arrestin2 pEC50 for this molecule: CC(C)CCn1nnc2cc(-c3nc(-c4ccccc4)no3)ccc21 [Compound 271]
<5

State its hS1P1 B-arrestin2 pEC50 for this molecule: FC(F)(F)c1cccc(-c2nc(-c3ccc4c(c3)nnn4C3CCCC3)no2)c1 [Compound 12]
<5

State its hS1P1 B-arrestin2 pEC50 for this molecule: CC(C)Nc1ccc(-c2ncc(-c3ccc4c(c3)nnn4C(C)C)cn2)cc1C#N [Compound 596]
>5

State its hS1P1 B-arrestin2 pEC50 for this molecule: COc1cccc(-c2noc(-c3ccc4c(c3)nnn4C3CCCC3)n2)n1 [Compound 124]
<5

State its hS1P1 B-arrestin2 pEC50 for this molecule: CCC1(CC)CC(=O)c2cc(-c3nc(-c4cncc(C)c4)no3)ccc2O1 [Compound 563]
>5

====

Field: Emax. Provide a value for each of the compounds that follow.
- Assayed System: human sphingosine-1-phosphate receptor 1 (S1P1) (Homo sapiens (Human))
- Sequence (P21453 whole entry, looked up): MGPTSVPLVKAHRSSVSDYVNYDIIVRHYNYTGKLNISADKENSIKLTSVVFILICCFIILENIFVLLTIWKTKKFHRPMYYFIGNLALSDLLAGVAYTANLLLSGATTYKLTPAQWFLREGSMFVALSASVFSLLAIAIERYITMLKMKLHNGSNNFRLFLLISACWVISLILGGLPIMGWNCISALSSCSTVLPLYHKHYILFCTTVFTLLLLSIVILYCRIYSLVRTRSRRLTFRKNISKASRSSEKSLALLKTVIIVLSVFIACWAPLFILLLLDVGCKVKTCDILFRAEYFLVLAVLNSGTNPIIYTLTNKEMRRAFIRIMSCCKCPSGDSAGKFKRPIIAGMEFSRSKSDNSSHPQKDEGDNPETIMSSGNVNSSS
- Sequence (P32121 whole entry partner, looked up): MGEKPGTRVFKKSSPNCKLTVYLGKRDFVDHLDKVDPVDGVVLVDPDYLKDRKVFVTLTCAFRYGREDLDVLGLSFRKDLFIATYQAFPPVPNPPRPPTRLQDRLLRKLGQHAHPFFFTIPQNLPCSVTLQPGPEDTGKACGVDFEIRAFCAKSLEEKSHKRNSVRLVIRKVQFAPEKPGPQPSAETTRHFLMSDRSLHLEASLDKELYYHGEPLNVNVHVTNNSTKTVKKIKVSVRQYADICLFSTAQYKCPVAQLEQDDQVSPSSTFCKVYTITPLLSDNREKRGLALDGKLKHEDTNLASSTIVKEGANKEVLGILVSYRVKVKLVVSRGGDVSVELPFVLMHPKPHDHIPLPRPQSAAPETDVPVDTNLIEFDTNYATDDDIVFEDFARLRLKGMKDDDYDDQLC
- Procedure Text: β-Arrestin2 recruitment assay (PathHunter), S1P1 CHO-K1 cells
- Format: cell-based
- Condition Label: CHO-K1; efficacy (SPAN) normalized to fingolimod; read-out: hS1P1 B-arrestin2 SPAN

State its Emax for this compound: COc1ccc(-c2noc(-c3ccc4c(c3)nnn4C3CCCC3)n2)cc1C(F)(F)F
< 75%

State its Emax for this compound: CC(C)n1ncc2cc(-c3nc(-c4cccc5c4OCO5)no3)ccc21
< 75%

State its Emax for this compound: CCC1(CC)CC(=O)c2cc(-c3nc(-c4ccc(NC)cc4)no3)ccc2O1
< 75%

State its Emax for this compound: O=C1CC2(CCCCC2)Oc2ccc(-c3nc(-c4ccncc4)no3)cc21
< 75%

State its Emax for this compound: CCC1(CC)CC(=O)c2cc(-c3nc(-c4ccnc(C(F)(F)F)c4)no3)ccc2O1
< 75%

State its Emax for this compound: Cc1ccsc1-c1noc(-c2ccc3c(c2)nnn3CC(C)C)n1
> 75%

State its Emax for this compound: C=CCNc1ccc(-c2nc(-c3ccc4[nH]ccc4c3)no2)cc1C#N
> 75%

State its Emax for this compound: O=C1CC2(CCOCC2)Oc2ccc(-c3nc(-c4cccnc4)no3)cc21
< 75%

State its Emax for this compound: O=C1CCOc2ccc(-c3nc(-c4cccnc4)no3)cc21
< 75%
